Measured On: Akt⅓
Experimental Details: In vitro kinase assay, Akt
Experimental Parameters: RTK table
pIC50: −log10 of the molar value.
Property Label: pIC50

Query :: Entry CN1CCN(c2ccc3nc(-c4c(N)c5c(F)cccc5[nH]c4=O)[nH]c3c2)CC1 [Compound 1] has what pIC50?
Result :: < 5.00

###

Measured On: PI-3K
Experimental Details: In vitro kinase assay, PI-3K
Experimental Parameters: RTK table
pIC50: −log10 of the molar value.
Property Label: pIC50

Query :: Tell me the measured pIC50 of CN1CCN(c2ccc3nc(-c4c(N)c5c(F)cccc5[nH]c4=O)[nH]c3c2)CC1 [Compound 1] , please.
Result :: < 5.00
